FYI, the data here is from ChEMBL document CHEMBL1129357.

tested on: Rattus norvegicus; assay: Ability to promote absorption of recombinant human growth hormone from the gastrointestinal tract in rats by using ELISA assay. (Compound dose 500 mg/kg, rhGH 6 mg/kg by OG administration); type: functional
# note: exactly 6 ng/mL is not below, so it is -1; use 1 for Peak rhGH strictly under it

# example entries with known answers
1. O=C(CC1CCCCC1)Nc1ccc(C(=O)O)cc1: 1
2. O=C(CCCc1ccccc1)Nc1ccc(C(=O)O)cc1: -1

I'd appreciate it if you could check whether O=C(Cc1ccccc1)Nc1ccc(C(=O)O)cc1 has Peak rhGH smaller than 6 ng/mL.
1

I'd appreciate it if you could check whether O=C(CCc1ccccc1)Nc1ccc(C(=O)O)cc1 has Peak rhGH smaller than 6 ng/mL.
1

I'd appreciate it if you could check whether O=C(O)Cc1ccc(NS(=O)(=O)c2ccccc2)cc1 has Peak rhGH smaller than 6 ng/mL.
1

I'd appreciate it if you could check whether O=C(O)c1ccc(NS(=O)(=O)c2ccccc2)cc1 has Peak rhGH smaller than 6 ng/mL.
-1

I'd appreciate it if you could check whether O=C(O)CCCc1ccc(NC(=O)C2CCCCC2)cc1 has Peak rhGH smaller than 6 ng/mL.
-1

I'd appreciate it if you could check whether O=C(O)CCCc1ccc(NC(=O)c2ccc(-c3ccccc3)cc2)cc1 has Peak rhGH smaller than 6 ng/mL.
-1

I'd appreciate it if you could check whether O=C(O)CCCc1ccc(NS(=O)(=O)c2ccccc2)cc1 has Peak rhGH smaller than 6 ng/mL.
-1

I'd appreciate it if you could check whether O=C(O)CCCc1ccc(NC(=O)CC2CCCCC2)cc1 has Peak rhGH smaller than 6 ng/mL.
-1

I'd appreciate it if you could check whether O=C(CCCC1CCCCC1)Nc1ccc(C(=O)O)cc1 has Peak rhGH smaller than 6 ng/mL.
-1

----------
system: Rattus norvegicus; experiment: Ability to promote absorption of recombinant human growth hormone from the gastrointestinal tract in rats by using ELISA assay. (Compound dose 300 mg/kg, rhGH 6 mg/kg by OG administration); assay type: functional
# note: exactly 6 ng/mL is not below, so it is F; use T for Peak rhGH strictly under it

# example entries with known answers
1) O=C(O)CCCc1ccc(NC(=O)CCCc2ccccc2)cc1: F
2) O=C(O)c1ccc(NC(=O)c2ccc(F)cc2)cc1: T
3) O=C(O)CCCc1ccc(NC(=O)c2ccc(F)cc2)cc1: T
4) O=C(O)Cc1ccc(NC(=O)CCc2ccccc2)cc1: F
5) O=C(O)Cc1ccc(NC(=O)Cc2ccccc2)cc1: F

I'd appreciate it if you could check whether O=C(O)CCCc1ccc(NC(=O)Cc2ccccc2O)cc1 has Peak rhGH smaller than 6 ng/mL.
T

I'd appreciate it if you could check whether O=C(O)CCCc1ccc(NC(=O)CCc2ccccc2)cc1 has Peak rhGH smaller than 6 ng/mL.
F

I'd appreciate it if you could check whether O=C(O)CCCc1ccc(NC(=O)c2ccccc2O)cc1 has Peak rhGH smaller than 6 ng/mL.
F

I'd appreciate it if you could check whether CC(C(=O)Nc1ccc(CCCC(=O)O)cc1)c1ccccc1 (centres undefined) has Peak rhGH smaller than 6 ng/mL.
T

I'd appreciate it if you could check whether COc1ccc(C(=O)Nc2ccc(CCCC(=O)O)cc2)cc1 has Peak rhGH smaller than 6 ng/mL.
T

I'd appreciate it if you could check whether O=C(O)CCCc1ccc(NC(=O)c2ccccc2F)cc1 has Peak rhGH smaller than 6 ng/mL.
F

I'd appreciate it if you could check whether O=C(O)Cc1ccc(NC(=O)CC2CCCCC2)cc1 has Peak rhGH smaller than 6 ng/mL.
F

I'd appreciate it if you could check whether O=C(O)CCCc1ccc(NC(=O)Cc2ccccc2)cc1 has Peak rhGH smaller than 6 ng/mL.
F
